Attribution: patent US20120230951A1

# Test system: GT-1a pRLuc H771b 75 S/I subgenomic replicon cell line
# assay: HCV GT-1a replicon luciferase reporter assay
# Assay type: cell-based
# protocol.conditions: Hepatitis C virus, GT1A, 72 h, read-out: GT-1a (IC50) (nM)
Label key: Satisfied means IC50 under 3 nM; Not satisfied means IC50 of 3 nM or more.

- compound: "COC(=O)N[C@H]1CCc2cccc3c2N(C1=O)[C@H](c1ncc(-c2ccc(-c4ccc(-c5cnc([C@@H]6CC7(CN6C(=O)[C@@H](NC(=O)OC)C(C)C)OCCO7)[nH]5)cc4)cc2)[nH]1)C3 [Compound I-8]"
  assigned.class: "Satisfied"
- compound: "COC(=O)N[C@H]1CCc2cc(C(N)=O)cc3c2N(C1=O)[C@H](c1ncc(-c2ccc(-c4ccc(-c5cnc([C@H]6CCCN6C(=O)[C@H](NC(=O)OC)C(C)C)[nH]5)cc4)cc2)[nH]1)C3 [Compound I-27]"
  assigned.class: "Not satisfied"
- compound: "COC(=O)N[C@H]1CCc2cccc3c2N(C1=O)[C@H](c1nc2ccc(-c4ccc(-c5ccc(-c6cnc([C@@H]7CCCN7C(=O)[C@@H](NC(=O)OC)C(C)C)[nH]6)cc5)cc4)cc2[nH]1)C3 [Compound I-11]"
  assigned.class: "Not satisfied"
- compound: "COC(=O)N[C@H]1CCc2cccc3c2N(C1=O)[C@H](c1ncc(-c2ccc(-c4ccc(-c5cnc(C6CC7(CCOCC7)CN6C(=O)[C@@H](NC(=O)OC)C(C)C)[nH]5)cc4)cc2)[nH]1)C3 (some centres unmarked) [Compound I-9]"
  assigned.class: "Not satisfied"
- compound: "COC(=O)N[C@H]1CCc2cccc3c2N(C1=O)[C@H](c1ncc(-c2ccc(-c4ccc(-c5cnc([C@@H]6C[C@H](O)CN6C(=O)[C@@H](NC(=O)OC)C(C)C)[nH]5)cc4)cc2)[nH]1)C3 [Compound I-33]"
  assigned.class: "Not satisfied"
